Value source: patent US6936607B2

Below are compounds with their pKi as measured on human GalR3 receptor (Homo sapiens, UniProt O60755).
Sequence (O60755 whole entry): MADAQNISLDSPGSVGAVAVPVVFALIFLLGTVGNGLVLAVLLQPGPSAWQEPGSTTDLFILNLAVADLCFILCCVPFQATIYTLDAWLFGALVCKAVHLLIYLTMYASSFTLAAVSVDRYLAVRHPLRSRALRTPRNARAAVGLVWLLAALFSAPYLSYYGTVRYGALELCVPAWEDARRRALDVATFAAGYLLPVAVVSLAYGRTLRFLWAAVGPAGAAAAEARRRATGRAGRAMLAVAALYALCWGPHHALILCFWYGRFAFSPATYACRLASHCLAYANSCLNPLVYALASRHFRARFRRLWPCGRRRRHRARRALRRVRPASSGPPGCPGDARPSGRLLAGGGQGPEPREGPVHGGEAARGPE
pKi: −log10 of the molar value.
reported-endpoint: pKi

- Cc1ccc(Nc2cc(N(C)C)nc(N3CCN(c4ccccn4)CC3)n2)c(NC(C)C)c1 [Example 45]: 6.30
- Cc1ccc(Nc2cc(N(C)C)nc(N3CCN(c4ccccc4Cl)CC3)n2)cc1 [Example 3]: 7.54
- Cc1ccc(Nc2cc(N3CCN(c4ncccn4)CC3)nc(N3C[C@@H](C)O[C@@H](C)C3)n2)cc1 [Example 52]: 6.93
- CN(C)c1cc(Nc2ccc(SC(F)(F)F)c(Cl)c2)nc(N2CCN(c3ccccc3F)CC2)n1 [Example 14]: 6.80
- CCC(C)Nc1cc(Nc2cc(N(C)C)nc(N3C[C@@H](C)O[C@@H](C)C3)n2)ccc1C (stereo partly drawn) [Example 50]: 6.51
- CN(C)c1cccc(Nc2cc(N(C)C)nc(N3CCN(c4ccccn4)CC3)n2)c1 [Example 28]: 6.38
